- measurement-description: Cytotoxicity against HEK-Blue hTLR4 cells incubated for 24 hrs by CCK8 assay
- Type: toxicity, cell-based
- protocol-conditions: human
measured-property: IC50 at 24 h

Would you be so kind as to report IC50 at 24 h for each listed record?
1. CN1CCN(C(=O)c2cnn3c(C(F)F)cc(-c4ccc(Cl)cc4)nc23)CC1
2. FC(F)c1cc(-c2ccc(Cl)cc2)nc2c(C(=S)N3C[C@H]4CCCC[C@H]4C3)cnn12
3. O=C(c1cnn2c(C(F)F)cc(-c3ccc(Cl)cc3)nc12)N1CCC2(CCCCC2)CC1
4. O=C(c1cnn2c(O)cc(-c3ccc(Cl)cc3)nc12)N1CCC2(CC1)OCCO2
5. Cc1ccc(-c2cc(C(F)F)n3ncc(C(=O)N4CCC5(CC4)OCCO5)c3n2)cc1
6. O=C(c1cnn2c(C(F)F)cc(C34CC5CC(CC(C5)C3)C4)nc12)N1C[C@H]2CCCC[C@H]2C1
7. O=C(c1cnn2c(C(F)F)cc(-c3ccc(Cl)cc3)nc12)N1CCC2(CC1)OCCO2
8. Cc1ccc(-c2cc(C(F)(F)F)n3ncc(C(=O)N4CCC5(CC4)OCCO5)c3n2)cc1

Result:
1. > 50 µM
2. > 50 µM
3. > 50 µM
4. > 50 µM
5. > 50 µM
6. > 50 µM
7. > 50 µM
8. > 50 µM

* * *

Answer each item with its documented IC50.
- measured-on: Toll-like receptor 4 (Homo sapiens, UniProt O00206)
- Sequence (O00206 whole entry): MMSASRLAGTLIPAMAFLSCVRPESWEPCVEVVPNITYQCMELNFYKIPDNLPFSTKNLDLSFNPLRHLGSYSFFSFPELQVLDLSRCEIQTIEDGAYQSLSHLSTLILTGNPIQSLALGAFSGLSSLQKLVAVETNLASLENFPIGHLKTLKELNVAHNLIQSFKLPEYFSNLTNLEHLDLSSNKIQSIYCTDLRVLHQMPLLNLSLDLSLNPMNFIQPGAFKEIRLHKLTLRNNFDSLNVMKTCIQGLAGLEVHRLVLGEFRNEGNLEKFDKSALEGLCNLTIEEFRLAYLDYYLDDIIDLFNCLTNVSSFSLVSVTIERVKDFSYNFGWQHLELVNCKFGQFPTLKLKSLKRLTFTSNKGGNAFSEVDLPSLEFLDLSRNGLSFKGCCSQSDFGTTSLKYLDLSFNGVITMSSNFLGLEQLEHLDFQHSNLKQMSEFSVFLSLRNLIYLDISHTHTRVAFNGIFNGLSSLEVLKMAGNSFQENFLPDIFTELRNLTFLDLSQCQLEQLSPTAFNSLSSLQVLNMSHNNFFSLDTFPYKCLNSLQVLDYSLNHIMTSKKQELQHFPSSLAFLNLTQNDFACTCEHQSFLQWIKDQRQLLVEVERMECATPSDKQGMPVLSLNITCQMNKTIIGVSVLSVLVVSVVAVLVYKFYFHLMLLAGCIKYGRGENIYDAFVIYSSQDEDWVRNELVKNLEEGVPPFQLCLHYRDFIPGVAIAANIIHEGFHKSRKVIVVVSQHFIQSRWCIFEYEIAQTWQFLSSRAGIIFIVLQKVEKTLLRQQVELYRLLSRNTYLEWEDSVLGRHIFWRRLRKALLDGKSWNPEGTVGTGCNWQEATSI
- measurement-description: Inhibition of human TLR4 in LPS-stimulated HEK-Blue hTLR4 cells assessed as reduction in SEAP activity incubated for 24 hrs by microplate reader assay
- Assay type: cell-based

Below, 2 compounds whose answers are already recorded.
[
  {
    "compound": "O=C(c1cnn2c(C(F)F)cc(-c3ccc(F)cc3)nc12)N1CCC2(CC1)OCCO2",
    "measured-property": "IC50",
    "endpoint-value": "> 50 µM"
  },
  {
    "compound": "Cc1ccc(-c2cc(C(F)(F)F)n3ncc(C(=O)N4CCC5(CC4)OCCO5)c3n2)cc1",
    "measured-property": "IC50",
    "endpoint-value": "> 50 µM"
  }
]

Would you be so kind as to report IC50 for each listed record?
1. O=C(c1cnn2c(C(F)(F)F)cc(-c3ccc(Cl)cc3)nc12)N1CCC2(CC1)OCCO2
2. NC1CCN(C(=O)c2cnn3c(C(F)F)cc(-c4ccc(Cl)cc4)nc23)CC1
3. O=C(c1cnn2c(C(F)F)cc(-c3ccc(Cl)cc3)nc12)N1CCC2(CCCCC2)CC1

Result:
["> 50 µM", "> 50 µM", "> 50 µM"]

Would you be so kind as to report IC50 for each listed record?
1. O=C(c1cnn2c(C(F)F)cc(-c3ccc(Br)cc3)nc12)N1CCC2(CC1)OCCO2
2. O=C(c1cnn2c(C(F)F)cc(-c3ccc(Cl)cc3)nc12)N1CCC2(CC1)OCCO2
3. O=C(c1cnn2c(C(F)F)cc(C34CC5CC(CC(C5)C3)C4)nc12)N1C[C@H]2CCCC[C@H]2C1
4. O=C(Oc1ccnc2c(Br)cccc12)c1cnn2c(C(F)F)cc(-c3ccc(Cl)cc3)nc12
5. Cc1ccc(-c2cc(C(F)F)n3ncc(C(=O)N4CCC5(CC4)OCCO5)c3n2)cc1
6. O=C(Nc1ccc(S(=O)(=O)NC2CC2)cc1)c1cnn2c(C(F)F)cc(-c3ccc(Cl)cc3)nc12

Result:
["> 50 µM", "4.94 µM", "> 50 µM", "15.5 µM", "14 µM", "10.5 µM"]

Would you be so kind as to report IC50 for each listed record?
1. CN1CCN(C(=O)c2cnn3c(C(F)F)cc(-c4ccc(Cl)cc4)nc23)CC1
2. O=C(c1cnn2c1NC(c1ccc(Cl)cc1)CC2C(F)F)N1C[C@H]2CCCC[C@H]2C1 (some centres undefined)
3. O=C(c1cnn2c(O)cc(-c3ccc(Cl)cc3)nc12)N1CCC2(CC1)OCCO2
4. O=C(c1cnn2c(C(F)F)cc(-c3ccc(Cl)cn3)nc12)N1C[C@H]2CCCC[C@H]2C1
5. COc1ccc(-c2cc(C(F)F)n3ncc(C(=O)N4CCC5(CC4)OCCO5)c3n2)cc1OC
6. FC(F)c1cc(-c2ccc(Cl)cc2)nc2cc(C(=S)N3C[C@H]4CCCC[C@H]4C3)nn12
7. FC(F)c1cc(-c2ccc(Cl)cc2)nc2c(C(=S)N3C[C@H]4CCCC[C@H]4C3)cnn12

Result:
1: 30.6 µM; 2: > 50 µM; 3: > 50 µM; 4: 11.8 µM; 5: > 50 µM; 6: > 50 µM; 7: > 50 µM

Item: CC(C)(C)OC(=O)N1CCN(C(=O)c2cnn3c(C(F)F)cc(-c4ccc(Cl)cc4)nc23)CC1 | IC50: > 50 µM
